# assay.details: chemical genetic growth profiling, strain panel (AID 1159580);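 further: tested at 20 µM; growth read once vehicle control cultures reached saturation at 30 °C; 1 = growth at the plate median or of vehicle wells; lower values mean less growth of the strain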
# assay.conditions: S. cerevisiae deletion strains, growth OD, locus YPL241C, strain CIN2, hits give low values
Among all 5,500 compounds or so, about 2,000 (36%) were called active. Another 18% or so got no clear call; they are omitted. This is one part of the list.
test.readout: normalized growth

>  <compound>
CC1(NCC(O)COc2cccc3[nH]ccc23)CCC(C(C)(C)NC(=O)CBr)CC1 (stereo not drawn)

>  <test.readout>
normalized growth

>  <assay.value>
1

$$$$
>  <compound>
Clc1ccc(Cl)cc1

>  <test.readout>
normalized growth

>  <assay.value>
1.01

$$$$
>  <compound>
COC(=O)c1cn(Cc2ccc(C(F)(F)F)cc2)cc(F)c1=O

>  <test.readout>
normalized growth

>  <assay.value>
1.01

$$$$
>  <compound>
CSc1nc(N)nc(C(C)(C)C)n1

>  <test.readout>
normalized growth

>  <assay.value>
1.11

$$$$
>  <compound>
CC(=O)O[C@H]1C[C@H](O[C@H]2[C@@H](O)C[C@H](O[C@H]3[C@@H](O)C[C@H](O[C@H]4CC[C@@]5(C)C(CCC6C5C[C@@H](O)[C@]5(C)[C@@H](C7=CC(=O)OC7)CC[C@]65O)C4)O[C@@H]3C)O[C@@H]2C)O[C@H](C)[C@H]1O[C@@H]1O[C@H](CO)[C@@H](O)[C@H](O)[C@H]1O (stereo partly drawn)

>  <test.readout>
normalized growth

>  <assay.value>
1.01

$$$$
>  <compound>
N/C(=N/OS(=O)(=O)c1ccc(Cl)cc1)c1ccc(C(F)(F)F)cc1

>  <test.readout>
normalized growth

>  <assay.value>
0.965

$$$$
>  <compound>
O=C1c2c(O)ccc(O)c2C(=O)c2c(NCCNCCO)ccc(NCCNCCO)c21

>  <test.readout>
normalized growth

>  <assay.value>
1.04

$$$$
>  <compound>
O=C(/C=C/c1ccccc1)c1ccc(O)cc1

>  <test.readout>
normalized growth

>  <assay.value>
0.763

$$$$
>  <compound>
NCCc1cccc(O)c1

>  <test.readout>
normalized growth

>  <assay.value>
1

$$$$
>  <compound>
CCCCCCc1ccc(O)cc1O

>  <test.readout>
normalized growth

>  <assay.value>
0.953

$$$$
>  <compound>
CNCCc1c[nH]c2ccc(O)cc12

>  <test.readout>
normalized growth

>  <assay.value>
1

$$$$
>  <compound>
CCOC(=O)c1c(SC)[nH]c2c(C(F)(F)F)cccc2c1=O

>  <test.readout>
normalized growth

>  <assay.value>
0.982

$$$$
>  <compound>
O=c1[nH]c(=O)n([C@H]2C[C@H](O)[C@@H](CO)O2)cc1/C=C/Br

>  <test.readout>
normalized growth

>  <assay.value>
0.99

$$$$
>  <compound>
CC(C)(C)C(=O)N1CCN(c2ncccc2C(F)(F)F)CC1

>  <test.readout>
normalized growth

>  <assay.value>
0.999

$$$$
>  <compound>
ClC(Cl)=C(c1ccc(Cl)cc1)c1ccc(Cl)cc1

>  <test.readout>
normalized growth

>  <assay.value>
0.973

$$$$
>  <compound>
CC(=O)Nc1ccc(OC(=O)c2ccccc2O)cc1

>  <test.readout>
normalized growth

>  <assay.value>
0.977

$$$$
>  <compound>
COc1ccc(-c2cc(=O)c3cc(OC)ccc3o2)cc1

>  <test.readout>
normalized growth

>  <assay.value>
0.997

$$$$
>  <compound>
COc1ccc(-c2cc(=O)c3ccccc3o2)cc1

>  <test.readout>
normalized growth

>  <assay.value>
0.839

$$$$
>  <compound>
COc1ccc2cc3[n+](cc2c1OC)CCc1cc2c(cc1-3)OCO2

>  <test.readout>
normalized growth

>  <assay.value>
0.558

$$$$
>  <compound>
Cc1c(C)c(C)c(CO)c(C)c1C

>  <test.readout>
normalized growth

>  <assay.value>
0.989

$$$$
>  <compound>
CC(=O)O.CC(=O)O.[Cd]

>  <test.readout>
normalized growth

>  <assay.value>
0.271

$$$$
>  <compound>
CCN(CC)CCNc1ccc(CO)c2sc3ccccc3c(=O)c12

>  <test.readout>
normalized growth

>  <assay.value>
1.02

$$$$
>  <compound>
CC1NC(=O)NC1=O (stereo not drawn)

>  <test.readout>
normalized growth

>  <assay.value>
1

$$$$

All figures here come from PubChem BioAssay AID1159580.
